Target chain: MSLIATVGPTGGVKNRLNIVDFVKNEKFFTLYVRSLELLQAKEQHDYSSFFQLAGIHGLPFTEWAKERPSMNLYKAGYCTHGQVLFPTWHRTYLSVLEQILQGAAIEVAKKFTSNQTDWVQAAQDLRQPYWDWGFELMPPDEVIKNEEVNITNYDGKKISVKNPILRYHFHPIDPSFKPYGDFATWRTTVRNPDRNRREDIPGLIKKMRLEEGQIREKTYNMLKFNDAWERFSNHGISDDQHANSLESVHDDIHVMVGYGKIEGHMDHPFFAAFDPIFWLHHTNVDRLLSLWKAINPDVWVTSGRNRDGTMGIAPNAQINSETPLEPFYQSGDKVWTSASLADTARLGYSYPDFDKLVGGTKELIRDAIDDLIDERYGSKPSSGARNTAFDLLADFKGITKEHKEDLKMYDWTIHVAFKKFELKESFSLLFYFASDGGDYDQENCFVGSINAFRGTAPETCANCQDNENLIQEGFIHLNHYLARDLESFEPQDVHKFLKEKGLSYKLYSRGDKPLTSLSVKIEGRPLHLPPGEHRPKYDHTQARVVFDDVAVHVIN
Property: IC50
Answer with the value and then the unit.

# input Item under review: O=C(CCc1ccc(O)cc1)c1c(O)cc(O)cc1O[C@@H]1O[C@H](CO)[C@@H](O)[C@H](O)[C@H]1O . Reported IC50?
# output 110 µM

All values here come from ChEMBL document CHEMBL1139063.
